MEASURED ON: CovR (unphosphorylated) (Streptococcus pyogenes MGAS5005 …, UniProt O87527 1-228)
EXPERIMENT SUMMARY: fluorescence polarization; unphosphorylated; CovR FP: 1 nM fluorescein DNA, 20 mM Tris pH 7.5, 50 mM NaCl, 2 mM DTT, 10 ug/mL poly(dI:dC), 25 C; CcpA FP as in ref 30 (buffer not given), with or without 10
RECORDED CONDITIONS: protein: recombinant; chain copies: 2; label: fluorescein; hairpin (20 bp stem, C5 loop)
MEASURED PROPERTY: Kd (nM)
Report as a plain number; the unit nM is understood.

Problem: Tell me the measured Kd of ACAAAAACCAATTAGAAAGACCCCCTCTTTCTAATTGGTTTTTGT (structured_DNA) [arcA promoter probe] , please.
Result: 637
